- System: speedwell (bird's-eye speedwell, Veronica persica)
- EXPERIMENT: Test D pre-/postemergence: speedwell
- Type: in vivo
- TEST CONDITIONS: Postemergence, 62 g ai/ha; scale 0 to 100 (0 no effect, 100 complete control)
In this section we review reported Plant response rating: Speedwell values for a set of molecules.
Keep it simple and answer with nothing but the number.

{"SMILES REPR": "COc1nn(-c2ccc(C(F)(F)F)cc2)nc1Cc1ccnc(C(F)F)c1", "VALUE MEASURED": 90}
{"SMILES REPR": "Cc1nn(-c2ccc(C(F)(F)F)cc2)nc1Oc1ccnc(C(F)(F)F)c1", "VALUE MEASURED": 100}
{"SMILES REPR": "Cc1nn(-c2ccc(C(F)(F)F)cn2)nc1Oc1ccnc(C(F)(F)F)c1", "VALUE MEASURED": 20}

Query: Plant response rating: Speedwell; subject: COc1nn(-c2ccc(C(F)(F)F)cc2)nc1Cc1ccnc(C(F)(F)F)c1 100

---

- System: wheat, winter (winter wheat, Triticum aestivum)
- EXPERIMENT: Test D pre-/postemergence: wheat, winter
- Assay type: in vivo
- TEST CONDITIONS: Postemergence, 62 g ai/ha; scale 0 to 100 (0 no effect, 100 complete control)
In this section we review reported Plant response rating: Wheat, Winter values for a set of compounds.
Keep it simple and answer with nothing but the number.

Examples with their reported Plant response rating: Wheat, Winter follow.
{"COMPOUND": "Cc1nn(-c2ccc(C(F)(F)F)cn2)nc1Oc1ccnc(C(F)(F)F)c1 [Compound 23]", "ATTRIBUTE MEASURED": "Plant response rating: Wheat, Winter", "VALUE MEASURED": 10}
{"COMPOUND": "FC(F)(F)COc1nn(-c2ccc(C(F)(F)F)cc2)nc1Cc1ccnc(C(F)(F)F)c1 [Compound 14]", "ATTRIBUTE MEASURED": "Plant response rating: Wheat, Winter", "VALUE MEASURED": 5}
{"COMPOUND": "CCOc1nn(-c2ccc(F)cc2)nc1Cc1ccnc(C(F)(F)F)c1 [Compound 196]", "ATTRIBUTE MEASURED": "Plant response rating: Wheat, Winter", "VALUE MEASURED": 25}

Could you now consider this next compound?
Query: Plant response rating: Wheat, Winter; subject: Cc1nn(-c2ccc(C(F)(F)F)c(F)c2)nc1Oc1ccnc(C(F)(F)F)c1 [Compound 148] 15

---

- Test system: ragweed (common ragweed, Ambrosia elation)
- EXPERIMENT: Test C pre-/postemergence: ragweed
- Format: in vivo
- TEST CONDITIONS: Postemergence, 62 g ai/ha; scale 0 to 100 (0 no effect, 100 complete control)
In this section we review reported Plant response rating, Ragweed values for a set of compounds.
Keep it simple and answer with nothing but the number.

{"SMILES REPR": "CCOc1nn(-c2ccc(F)cc2)nc1Cc1ccnc(C(F)(F)F)c1", "VALUE MEASURED": 85}
{"SMILES REPR": "Cc1nn(-c2ccc(C(F)(F)F)c(F)c2)nc1Oc1ccnc(C(F)(F)F)c1", "VALUE MEASURED": 85}

Could you now consider this next compound?
Query: Plant response rating, Ragweed; subject: COc1nn(-c2cccc(F)c2)nc1Cc1ccnc(C(F)(F)F)c1 40

---

- Test system: nutsedge, yellow (yellow nutsedge, Cyperus esculentus)
- EXPERIMENT: Test F pre-/postemergence: nutsedge, yellow
- Assay type: in vivo
- TEST CONDITIONS: Preemergence; 250 g ai/ha; scale 0 to 100
ATTRIBUTE MEASURED: Plant response rating, Nutsedge, Yellow

{"MOLECULE": "CCc1nn(-c2ccc(C(F)(F)F)cc2)nc1Oc1ccnc(C(F)(F)F)c1 [Compound 169]", "VALUE MEASURED": 25}
{"MOLECULE": "CCCc1nn(-c2ccc(F)c(F)c2)nc1Oc1ccnc(C(F)(F)F)c1 [Compound 172]", "VALUE MEASURED": 25}
{"MOLECULE": "CCc1nn(-c2ccc(F)cc2)nc1Cc1ccnc(C(F)(F)F)c1 [Compound 154]", "VALUE MEASURED": 0}

Could you now consider this next molecule?
Query: Plant response rating, Nutsedge, Yellow; subject: COc1nn(-c2cccc(F)c2)nc1Cc1ccnc(C(F)(F)F)c1 [Compound 139] 0

---

- System: ryegrass, Italian (Italian ryegrass, Lolium multiflorum)
- EXPERIMENT: Test D pre-/postemergence: ryegrass, Italian
- Assay type: in vivo
- TEST CONDITIONS: Postemergence, 125 g ai/ha; scale 0 to 100, 0 no effect, 100 complete control
- Description: […] Treated plants and controls were maintained in a controlled growth environment for 14 to 21 days after which time all species were compared to controls and visually evaluated. […]
ATTRIBUTE MEASURED: Plant response rating: Ryegrass, Italian
Keep it simple and answer with nothing but the number.

Examples with their reported Plant response rating: Ryegrass, Italian follow.
{"COMPOUND": "FC(F)(F)COc1nn(-c2ccc(C(F)(F)F)cc2)nc1Cc1ccnc(C(F)(F)F)c1 [Compound 14]", "VALUE MEASURED": 25}
{"COMPOUND": "CCc1nn(-c2ccc(C(F)(F)F)cc2)nc1Cc1ccnc(C(F)(F)F)c1 [Compound 155]", "VALUE MEASURED": 60}

Query: Plant response rating: Ryegrass, Italian; subject: COc1nn(-c2ccc(C(F)(F)F)cc2)nc1Cc1ccnc(C(F)F)c1 [Compound 138] 40

Query: Plant response rating: Ryegrass, Italian; subject: Cc1nn(-c2ccc(C(F)(F)F)cn2)nc1Oc1ccnc(C(F)(F)F)c1 [Compound 23] 10

---

- Test system: winter wheat (Triticum aestivum)
- EXPERIMENT: Test C pre-/postemergence: winter wheat
- Format: in vivo
- TEST CONDITIONS: Postemergence, 31 g ai/ha; scale 0 to 100 (0 no effect, 100 complete control)
ATTRIBUTE MEASURED: Plant response rating, Wheat
Keep it simple and answer with nothing but the number.

Examples with their reported Plant response rating, Wheat follow.
{"COMPOUND": "Cc1nn(-c2ccnc(Cl)c2)nc1Cc1ccnc(C(F)(F)F)c1 [Compound 141]", "Plant response rating, Wheat": 10}
{"COMPOUND": "CCc1nn(-c2ccc(F)c(F)c2)nc1Oc1ccnc(C(F)(F)F)c1 [Compound 171]", "Plant response rating, Wheat": 5}
{"COMPOUND": "CCCc1nn(-c2ccc(C(F)(F)F)cc2)nc1Oc1ccnc(C(F)(F)F)c1 [Compound 170]", "Plant response rating, Wheat": 10}

Query: Plant response rating, Wheat; subject: COc1nn(-c2ccc(C(F)(F)F)cc2)nc1Cc1ccnc(C(F)F)c1 [Compound 138] 10

Query: Plant response rating, Wheat; subject: Fc1ccc(-n2nc(Cc3ccnc(C(F)(F)F)c3)c(OC(F)F)n2)cc1 [Compound 25] 10

Query: Plant response rating, Wheat; subject: Cc1nn(-c2ccc(C(F)(F)F)c(F)c2)nc1Oc1ccnc(C(F)(F)F)c1 [Compound 148] 20

Query: Plant response rating, Wheat; subject: CCOc1nn(-c2ccc(F)cc2)nc1Cc1ccnc(C(F)(F)F)c1 [Compound 196] 15

---

- Tested on: foxtail, giant (giant foxtail, Setaria faberii)
- EXPERIMENT: Test A pre-/postemergence: foxtail, giant
- Format: in vivo
- TEST CONDITIONS: Preemergence, 500 g ai/ha; 0 to 100 scale, 0 is no effect, 100 is complete control
ATTRIBUTE MEASURED: Plant response rating, Foxtail, Giant
Keep it simple and answer with nothing but the number.

Examples with their reported Plant response rating, Foxtail, Giant follow.
{"SMILES REPR": "COc1nn(-c2ccc(C(F)(F)F)cc2)nc1Cn1nc(C(F)(F)F)cc1C(F)(F)F", "Plant response rating, Foxtail, Giant": 0}
{"SMILES REPR": "CSc1nn(-c2ccc(F)cc2)nc1Cc1ccnc(C(F)(F)F)c1", "Plant response rating, Foxtail, Giant": 80}
{"SMILES REPR": "Cc1nn(-c2ccc(F)cc2)nc1Oc1cccc(C(F)(F)F)c1", "Plant response rating, Foxtail, Giant": 100}

Requested read-out Plant response rating, Foxtail, Giant, target or system foxtail, giant (giant foxtail, Setaria faberii), entry Cc1nn(-c2ccc(C(F)(F)F)cn2)nc1Cn1cnc(C(F)(F)F)n1 90

Requested read-out Plant response rating, Foxtail, Giant, target or system foxtail, giant (giant foxtail, Setaria faberii), entry Fc1ccc(-n2nc(Cc3ccnc(C(F)(F)F)c3)c(OC(F)F)n2)cc1 100

Requested read-out Plant response rating, Foxtail, Giant, target or system foxtail, giant (giant foxtail, Setaria faberii), entry Cc1nn(-c2ccc(C(F)(F)F)cc2)nc1Oc1cccc(C(F)(F)F)c1 100

Requested read-out Plant response rating, Foxtail, Giant, target or system foxtail, giant (giant foxtail, Setaria faberii), entry Cc1nn(-c2ccc(C(F)F)cn2)nc1C(=O)c1cccc(C(F)(F)F)c1 0

Requested read-out Plant response rating, Foxtail, Giant, target or system foxtail, giant (giant foxtail, Setaria faberii), entry Cc1nn(-c2ccc(Cl)nc2)nc1C(=O)c1cccc(C(F)(F)F)c1 20

Requested read-out Plant response rating, Foxtail, Giant, target or system foxtail, giant (giant foxtail, Setaria faberii), entry Cc1nn(-c2ccc(F)cc2)nc1Cn1cc(C(F)(F)F)nc1Cl 100
